Tested on: TK-10
Test: NCI tumour cell line growth inhibition, 48 h
Active and inactive are the calls of the source. Rule as the data show it: active = GI50 up to about 1.1 µM and inactive = higher.
Quick list: GI50 per entry.

# annotated cases, reported GI50 shown
                                   molecule  reported_property          assay_value
0  O=C(/C=C1\Nc2ccccc2N\C1=C\C(=O)c1ccc(Cl)cc1)c1ccccc1               GI50  > 100 µM (inactive)
1  Cc1nc(O)nc2nc3cc(Cl)cc(Cl)c3c(NC(C)(CO)CO)c12               GI50   27.4 µM (inactive)
2  NC(=O)Cc1nc2c(O)ncnc2n1C1OC(CO)C(O)C1O (stereo unspecified)               GI50  > 100 µM (inactive)
3  CSCCC(C(=O)O)N(CC1(O)OCC(O)C(O)C1O)N=O (stereo unspecified)               GI50  > 100 µM (inactive)
4                 Cc1nc2ccccc2n1Cc1nnc(N)o1               GI50  > 100 µM (inactive)
5  C/C(CC(=O)Nc1cccc([N+](=O)[O-])c1)=N/NC(N)=S               GI50  > 100 µM (inactive)

Lookup result for COc1cc2[nH]c3c(c2cc1OC)CCN[C@@]31CC[C@@]2(CC3c4c(cc(OC)c(O)c42)CCN3C)C[C@@H]1OC (stereo partly specified) ; measured GI50: 29.8 µM (inactive)

Lookup result for COC(=O)C(CC(C)=O)CS(=O)(=O)CC(=O)C(=O)Nc1cccc([N+](=O)[O-])c1 (stereo unspecified) ; measured GI50: > 100 µM (inactive)

Lookup result for COc1cc(C2C(=O)C(Cl)N2Nc2nc(C)cc(O)n2)cc(OC)c1OC (stereo unspecified) ; measured GI50: 24.3 µM (inactive)

###

Test system: NCI-H226
Assay: NCI tumour cell line growth inhibition, 48 h
Calls of active or inactive are those of the source. Rule as the data show it: active = GI50 up to about 1.1 µM and inactive = higher.
REPORTED_PROPERTY: GI50

# annotated cases, reported GI50 shown
COMPOUND	REPORTED_PROPERTY	ASSAY_VALUE
Nc1c(-c2ccc(-c3c(N)[n+]([O-])c4ccccc4[n+]3[O-])cc2)[n+]([O-])c2ccccc2[n+]1[O-]	GI50	20.6 µM (inactive)
COC1(OC)C2(Cl)CCC1(Cl)C(OC(C)=O)C2 (stereo unspecified)	GI50	> 100 µM (inactive)
CC1=CC2=C(OCO1)C(=O)c1ccccc1C2=O	GI50	10.4 µM (inactive)
CC(C)(C)C(=O)Cc1cc2c(cc1C(=O)O)S(=O)(=O)NC(C(C)(C)C)=C2	GI50	> 100 µM (inactive)
OC(c1ccccn1)C1CNc2ccccc21 (stereo unspecified)	GI50	> 100 µM (inactive)
CCC[C@@H](O)C[C@@H]1CCC[C@H](C[C@@H](O)CC)N1C	GI50	> 100 µM (inactive)

Lookup result for COc1cc2ccc(CC(N)=O)cc2cc1OC ; measured GI50: > 100 µM (inactive)

Lookup result for CC(=O)N/C(=C\c1ccc(Cc2nc3c([nH]2)C(=O)c2ccccc2C3=O)cc1)c1nc2c([nH]1)C(=O)c1ccccc1C2=O ; measured GI50: > 100 µM (inactive)

Lookup result for CC1=NN(C(=O)CC(=O)N(C(=O)c2ccccc2)c2ccc(Cl)cc2)C(=O)C1/N=N/c1ccc([N+](=O)[O-])cc1 (stereo unspecified) ; measured GI50: > 10 µM (inactive)

Lookup result for COc1ccc(C(OCC2OC3(COC(c4ccccc4)(c4ccc(OC)cc4)c4ccc(OC)cc4)C(Oc4nc(=O)ccn43)C2O)(c2ccccc2)c2ccc(OC)cc2)cc1 (stereo unspecified) ; measured GI50: > 100 µM (inactive)

Lookup result for CCCCC(C)C(OC(=O)CC(CC(=O)O)C(=O)O)C(CC(C)CC(O)CCCCC(O)CC(O)C(C)N)OC(=O)CC(CC(=O)O)C(=O)O (stereo unspecified) ; measured GI50: > 100 µM (inactive)

###

System: ACHN
Assay: NCI tumour cell line growth inhibition, 48 h
Calls of active or inactive are those of the source. No stated cut-off is given here; in the data, active = GI50 up to about 1.1 µM and inactive = higher.
REPORTED_PROPERTY: GI50

In [3]: df
Out[3]:
                                   compound  tested_target         assay_value
0  O=C1CC(CC(OCc2ccccc2)C(COCc2ccccc2)OCc2ccccc2)CC(=O)N1 (stereo not drawn)           ACHN  30.3 µM (inactive)
1  CCN(CC)CCNC(=O)c1cc2cc(NC(=O)c3cc4cc([N+](=O)[O-])ccc4[nH]3)ccc2[nH]1           ACHN  35.1 µM (inactive)
2       C#CC(C)(C)OC(=O)C(=[N+]=[N-])C(C)=O           ACHN  > 10 µM (inactive)

Lookup result for C/C(=C1\N=C(c2ccccc2)OC1=O)c1ccccc1 ; measured GI50: > 100 µM (inactive)

###

Tested on: SNB-19
Assay: NCI tumour cell line growth inhibition, 48 h
The source made the active and inactive calls. Rule as the data show it: active = GI50 up to about 1.1 µM and inactive = higher.
Classes to choose from: active, inactive

Below are worked cases with known answers.
>>> print(df.to_string())
                                   molecule  qualitative_label
0  N#Cc1nc2cc(Cl)ccc2nc1N1CCN(c2ccc([N+](=O)[O-])cc2)CC1           inactive
1  Cc1occc1/C(S)=N\c1ccc(Cl)c(C(=O)OCC2CC2)c1           inactive
2  CC(=O)OCC1OC(n2c(-c3ccccc3)c(C(C)=O)c(-c3ccc(Cl)cc3)c(C#N)c2=S)C(OC(C)=O)C(OC(C)=O)C1OC(C)=O (stereo unspecified)           inactive
3                   Cc1ccc(CCC(=O)C(=O)O)s1           inactive
4  O=c1n(N=[S+]([O-])(c2ccccc2)c2ccccc2)c(=O)n2n1C1C=CC2CC1           inactive
5  CCN(CC)c1ccc2cc(-c3nc4ccccc4n3C)c(=O)oc2c1             active
6     Cc1nc(N/N=C/c2ccccc2Cl)[nH]c(=O)c1CCO           inactive
7       O=C(O)c1ccc(NS(=O)(=O)Cc2ccccc2)cc1           inactive
8                 CCOC(=O)c1sc(N)nc1N1CCCC1           inactive
9  CC(=O)[C@H]1CCC2[C@@H]3CC=C4C(O)C(OS(=O)(=O)O)CC[C@]4(C)C3CC[C@@]21C (stereo partly specified)           inactive

Incoming: Recorded test call requested for COc1ccc(C2N(NC(=O)c3ccncc3)C(=O)CS2(=O)=O)cc1F (stereo unspecified)
Outgoing: inactive

Incoming: Recorded test call requested for CCCCCCOP(=O)(OCCCCCC)OC(C(=O)OC)C(F)(F)F (stereo unspecified)
Outgoing: inactive

Incoming: Recorded test call requested for O=C1CCC(c2ccccc2)=NN1c1nsc2ccccc12
Outgoing: inactive

###

Tested on: SNB-19
Test: NCI tumour cell line growth inhibition, 48 h
The source made the active and inactive calls. Cut-off read from the data, not from the text of the source: active = GI50 up to about 1.1 µM and inactive = higher.
Classes to choose from: 1.0 for active, 0.0 for inactive

Below are worked cases with known answers.
COMPOUND	TESTED_TARGET	QUALITATIVE_LABEL
O=C(Cn1c(C(=O)/C=C/c2ccco2)nc2ccccc21)c1ccc(Cl)cc1	SNB-19	0.0
CC1[C@@H]2CC=C3C4CCC5Cc6nc7c(nc6C[C@@]5(C)C4CC(=O)[C@]32CO[C@@]1(O)C(O)CC(C)(C)O)CC1CCC2C3=C[C@H]4O[C@@]5(O[C@@](C)(CO)C[C@@H]5O)C(C)[C@@]4(O)[C@]3(C)[C@@H](O)CC2[C@]1(C)C7 (stereo partly drawn)	SNB-19	1.0
CCOC(=O)CCC(NC(=O)c1ccc(CNc2nc3cc(N)cc(N)c3nc2-c2ccccc2)cc1)C(=O)OCC (stereo not drawn)	SNB-19	0.0
CCC1(OC(=O)CN)C(=O)OCc2c1cc1n(c2=O)Cc2cc3ccccc3nc2-1 (stereo not drawn)	SNB-19	1.0
COCCO [2-METHOXYETHANOL]	SNB-19	0.0

Incoming: Recorded test call requested for C=C1C(=O)O[C@H]2C[C@@]3(C)[C@H](O)CCC(=C)[C@@H]3[C@@H](OC(C)=O)[C@H]12
Outgoing: 0.0

Incoming: Recorded test call requested for O=C(O)/C=C\C(=O)Nc1ccc2c(c1)C(=O)c1cc(F)ccc1-2
Outgoing: 0.0

Incoming: Recorded test call requested for CN1N=C2c3ccccc3OC(c3ccccc3)[C@H]2C1c1ccccc1 (stereo partly drawn)
Outgoing: 0.0

###

Tested on: OVCAR-5
Assay: NCI tumour cell line growth inhibition, 48 h
Activity calls are given as the source filed them. Rule as the data show it: active = GI50 up to about 1.1 µM and inactive = higher.
Classes to choose from: active, inactive

Below are worked cases with known answers.
MOLECULE	QUALITATIVE_LABEL
Cc1ccc(S(=O)(=O)[N-]C2C(=O)c3ccccc3C(=O)C2[n+]2cccc(C(N)=O)c2)cc1 (configuration not stated)	inactive
COc1ccc(N2C(=O)C3c4[nH]c5ccc(OCc6ccccc6)cc5c4C4CCC(C(C)C)CC4C3C2=O)cc1 (configuration not stated)	inactive
CCCCC(C)C(OC(=O)CC(CC(=O)O)C(=O)O)C(CC(C)CC(O)CCCCC(O)CC(O)C(C)N)OC(=O)CC(CC(=O)O)C(=O)O (configuration not stated)	inactive
O=C1CC(=O)NC(NN2C(=O)CSC2C(=O)c2ccco2)=N1 (configuration not stated)	inactive
Cc1ccc2c(O)cc(-c3ccc(Cl)s3)nc2n1	inactive
CC1[C@@H]2CC=C3C4CCC5Cc6nc7c(nc6C[C@@]5(C)C4CC(=O)[C@]32CO[C@@]1(O)C(O)CC(C)(C)O)CC1CCC2C3=C[C@H]4O[C@@]5(O[C@@](C)(CO)C[C@@H]5O)C(C)[C@@]4(O)[C@]3(C)[C@@H](O)CC2[C@]1(C)C7 (some centres not stated)	active

Let's switch to this molecule now.
Incoming: Recorded test call requested for C/C(CC(=O)Nc1cccc([N+](=O)[O-])c1)=N/NC(N)=S
Outgoing: inactive

The measured values listed here are drawn from ChEMBL document CHEMBL1201862.
